Tested on: SCF^Skp2/Cks1
Construct: 6His-Skp2-(isoform 1, hu,FL),; GST-Skp1-(hu,FL), 6His-Cul1-; (hu,FL), UT-Rbx1-(hu,FL); 6His-Cks1-(hu,FL); 6His (N); GST (N); made in house
Sequence (Q13309 whole entry, canonical isoform): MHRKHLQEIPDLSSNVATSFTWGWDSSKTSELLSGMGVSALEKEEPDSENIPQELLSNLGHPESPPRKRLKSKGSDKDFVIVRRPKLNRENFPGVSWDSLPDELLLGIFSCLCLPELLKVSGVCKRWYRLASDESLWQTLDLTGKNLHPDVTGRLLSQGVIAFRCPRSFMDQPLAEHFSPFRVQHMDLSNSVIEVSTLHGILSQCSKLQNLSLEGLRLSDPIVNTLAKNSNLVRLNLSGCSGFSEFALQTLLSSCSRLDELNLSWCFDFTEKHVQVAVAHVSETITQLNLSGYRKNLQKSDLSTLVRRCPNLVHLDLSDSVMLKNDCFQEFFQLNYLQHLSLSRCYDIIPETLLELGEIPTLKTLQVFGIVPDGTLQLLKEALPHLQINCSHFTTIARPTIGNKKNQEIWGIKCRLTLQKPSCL
Sequence (P63208 1-160 isoform P63208-2, further chain): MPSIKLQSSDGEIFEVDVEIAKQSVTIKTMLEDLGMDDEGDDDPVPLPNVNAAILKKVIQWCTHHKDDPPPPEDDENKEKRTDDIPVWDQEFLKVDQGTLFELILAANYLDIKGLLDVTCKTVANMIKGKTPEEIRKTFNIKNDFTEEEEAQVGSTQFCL
Sequence (Q13616 whole entry, further chain, canonical isoform): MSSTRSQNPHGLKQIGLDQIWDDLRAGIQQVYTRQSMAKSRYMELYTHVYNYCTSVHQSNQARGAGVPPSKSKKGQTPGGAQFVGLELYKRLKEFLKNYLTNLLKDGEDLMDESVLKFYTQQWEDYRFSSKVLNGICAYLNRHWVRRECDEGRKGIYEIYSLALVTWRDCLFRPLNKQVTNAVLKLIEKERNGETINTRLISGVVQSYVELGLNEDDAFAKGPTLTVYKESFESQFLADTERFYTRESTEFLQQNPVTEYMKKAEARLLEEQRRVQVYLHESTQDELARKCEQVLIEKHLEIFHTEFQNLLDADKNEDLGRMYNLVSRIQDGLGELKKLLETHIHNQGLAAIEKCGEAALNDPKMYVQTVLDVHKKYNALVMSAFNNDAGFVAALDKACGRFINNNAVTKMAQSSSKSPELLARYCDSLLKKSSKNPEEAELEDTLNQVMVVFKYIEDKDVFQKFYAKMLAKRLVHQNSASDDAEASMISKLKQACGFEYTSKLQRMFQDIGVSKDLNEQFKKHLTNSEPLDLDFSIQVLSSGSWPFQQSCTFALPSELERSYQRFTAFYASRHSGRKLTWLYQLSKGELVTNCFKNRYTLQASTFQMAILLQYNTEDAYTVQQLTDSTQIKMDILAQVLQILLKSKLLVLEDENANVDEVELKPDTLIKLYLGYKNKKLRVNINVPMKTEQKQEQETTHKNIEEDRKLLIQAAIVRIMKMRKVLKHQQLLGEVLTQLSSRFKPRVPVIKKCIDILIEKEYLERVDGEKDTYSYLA
Sequence (P62877 whole entry, further chain, canonical isoform): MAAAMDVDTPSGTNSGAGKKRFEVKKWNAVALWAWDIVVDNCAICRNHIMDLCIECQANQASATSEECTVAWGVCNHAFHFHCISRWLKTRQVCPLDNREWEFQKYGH
Sequence (P61024 whole entry, further chain, canonical isoform): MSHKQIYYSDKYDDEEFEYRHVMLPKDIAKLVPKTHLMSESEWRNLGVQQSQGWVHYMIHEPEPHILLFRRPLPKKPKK
procedure-details: 'Live' SCF^Skp2/Cks1 (E3) p27 ubiquitination assay, ECL
Type: biochemical, human
run-parameters: R140 kinase inhibitor panel + PYR-41; final E3 assay conditions
assay-metric: inhibition in E3 assay, panel of 41 inhibitors

Form: compound = CCOC(=O)c1ccc(N2NC(=O)/C(=C/c3ccc([N+](=O)[O-])o3)C2=O)cc1 [PYR-41] ; inhibition in E3 assay, panel of 41 inhibitors = > 80%
